- experimental_setup: 303.15 K; 55000 kPa; Liquid; Vibrating tube method
measured_metric: mass density (kg/m3)

entry_smiles=COC(C)(C)C measured_metric="mass density" units_of_measure=kg/m3 recorded_result=780.95
entry_smiles=CCCCOCC measured_metric="mass density" units_of_measure=kg/m3 recorded_result=786.51
entry_smiles=CCCCOC measured_metric="mass density" units_of_measure=kg/m3 recorded_result=783.46
entry_smiles=CC(C)OC(C)C measured_metric="mass density" units_of_measure=kg/m3 recorded_result=766.7
entry_smiles=CC(C)CCOCCC(C)C measured_metric="mass density" units_of_measure=kg/m3 recorded_result=806.36
entry_smiles=CCOC(C)(C)C measured_metric="mass density" units_of_measure=kg/m3 recorded_result=781.12
entry_smiles=CCCOCCC measured_metric="mass density" units_of_measure=kg/m3 recorded_result=785.01
entry_smiles=CCCCCOCCCCC measured_metric="mass density" units_of_measure=kg/m3 recorded_result=812.62

====

- experimental_setup: 308.15 K; 15000 kPa; Liquid; Vibrating tube method
measured_metric: mass density (kg/m3)

entry_smiles=COC(C)(C)C recorded_result=742.69
entry_smiles=CCCCOCC recorded_result=751.24
entry_smiles=CCCCCOCCCCC recorded_result=783.28
entry_smiles=CCCOCCC recorded_result=749.22
entry_smiles=CC(C)OC(C)C recorded_result=726.79
entry_smiles=CC(C)CCOCCC(C)C recorded_result=775.74
entry_smiles=CCOC(C)(C)C recorded_result=743.07
entry_smiles=CCCCOC recorded_result=746.98

====

- experimental_setup: 308.15 K; 30000 kPa; Liquid; Vibrating tube method
measured_metric: mass density (kg/m3)

molecule="CCOC(C)(C)C [2-ethoxy-2-methylpropane]" recorded_result=757.57
molecule="CCCCOCC [butyl ethyl ether]" recorded_result=764.45
molecule="CC(C)OC(C)C [diisopropyl ether]" recorded_result=742.07
molecule="CCCOCCC [dipropyl ether]" recorded_result=762.65
molecule="CCCCOC [butyl methyl ether]" recorded_result=760.67
molecule="COC(C)(C)C [2-methoxy-2-methylpropane]" recorded_result=757.26
molecule="CCCCCOCCCCC [dipentyl ether]" recorded_result=793.99
molecule="CC(C)CCOCCC(C)C [di-(3-methylbutyl) ether]" recorded_result=787.05

====

- experimental_setup: 288.15 K; 15000 kPa; Liquid; Vibrating tube method
measured_metric: mass density (kg/m3)

entry_smiles=CCCCOCC recorded_result=768.83
entry_smiles=CCCCCOCCCCC recorded_result=798.17
entry_smiles=CCOC(C)(C)C recorded_result=761.42
entry_smiles=CC(C)CCOCCC(C)C recorded_result=790.64
entry_smiles=CCCCOC recorded_result=765.26
entry_smiles=CCCOCCC recorded_result=767.01
entry_smiles=CC(C)OC(C)C recorded_result=745.3
entry_smiles=COC(C)(C)C recorded_result=761.32

====

- experimental_setup: 313.15 K; 100 kPa; Liquid; Vibrating tube method
measured_metric: mass density (kg/m3)

compound="CCCCCOCCCCC [dipentyl ether]" measured_metric="mass density" units_of_measure=kg/m3 recorded_result=766.82
compound="CCCCOCC [butyl ethyl ether]" measured_metric="mass density" units_of_measure=kg/m3 recorded_result=730.45
compound="CCOC(C)(C)C [2-ethoxy-2-methylpropane]" measured_metric="mass density" units_of_measure=kg/m3 recorded_result=720.14
compound="CCCCOC [butyl methyl ether]" measured_metric="mass density" units_of_measure=kg/m3 recorded_result=725.34
compound="COC(C)(C)C [2-methoxy-2-methylpropane]" measured_metric="mass density" units_of_measure=kg/m3 recorded_result=719.29
compound="CC(C)CCOCCC(C)C [di-(3-methylbutyl) ether]" measured_metric="mass density" units_of_measure=kg/m3 recorded_result=758.37
compound="CCCOCCC [dipropyl ether]" measured_metric="mass density" units_of_measure=kg/m3 recorded_result=727.8
compound="CC(C)OC(C)C [diisopropyl ether]" measured_metric="mass density" units_of_measure=kg/m3 recorded_result=702.38

====

- experimental_setup: 323.15 K; 60000 kPa; Liquid; Vibrating tube method
measured_metric: mass density (kg/m3)

molecule="CCCCCOCCCCC [dipentyl ether]" measured_metric="mass density" recorded_result=802.89
molecule="CCCCOC [butyl methyl ether]" measured_metric="mass density" recorded_result=772.05
molecule="CCCCOCC [butyl ethyl ether]" measured_metric="mass density" recorded_result=775.47
molecule="COC(C)(C)C [2-methoxy-2-methylpropane]" measured_metric="mass density" recorded_result=769.61
molecule="CC(C)OC(C)C [diisopropyl ether]" measured_metric="mass density" recorded_result=755.59
molecule="CC(C)CCOCCC(C)C [di-(3-methylbutyl) ether]" measured_metric="mass density" recorded_result=796.89
molecule="CCCOCCC [dipropyl ether]" measured_metric="mass density" recorded_result=773.95
molecule="CCOC(C)(C)C [2-ethoxy-2-methylpropane]" measured_metric="mass density" recorded_result=770

====

- experimental_setup: 293.15 K; 30000 kPa; Liquid; Vibrating tube method
measured_metric: mass density (kg/m3)

compound="CC(C)CCOCCC(C)C [di-(3-methylbutyl) ether]" recorded_result=797.46
compound="CCCOCCC [dipropyl ether]" recorded_result=774.94
compound="CC(C)OC(C)C [diisopropyl ether]" recorded_result=754.71
compound="CCCCOC [butyl methyl ether]" recorded_result=773.26
compound="CCCCCOCCCCC [dipentyl ether]" recorded_result=804.44
compound="CCOC(C)(C)C [2-ethoxy-2-methylpropane]" recorded_result=770.13
compound="CCCCOCC [butyl ethyl ether]" recorded_result=776.62
compound="COC(C)(C)C [2-methoxy-2-methylpropane]" recorded_result=770.01

====

- experimental_setup: 303.15 K; 40000 kPa; Liquid; Vibrating tube method
measured_metric: mass density (kg/m3)

entry_smiles=COC(C)(C)C recorded_result=769.79
entry_smiles=CCCCCOCCCCC recorded_result=803.84
entry_smiles=CCCOCCC recorded_result=774.48
entry_smiles=CCOC(C)(C)C recorded_result=769.98
entry_smiles=CCCCOCC recorded_result=776.1
entry_smiles=CCCCOC recorded_result=772.76
entry_smiles=CC(C)OC(C)C recorded_result=755.09
entry_smiles=CC(C)CCOCCC(C)C recorded_result=797.19

====

- experimental_setup: 323.15 K; 45000 kPa; Liquid; Vibrating tube method
measured_metric: mass density (kg/m3)

molecule="CC(C)OC(C)C [diisopropyl ether]" recorded_result=743.5
molecule="CCCCOC [butyl methyl ether]" recorded_result=760.83
molecule="COC(C)(C)C [2-methoxy-2-methylpropane]" recorded_result=757.92
molecule="CCCCOCC [butyl ethyl ether]" recorded_result=764.61
molecule="CCCCCOCCCCC [dipentyl ether]" recorded_result=793.75
molecule="CCOC(C)(C)C [2-ethoxy-2-methylpropane]" recorded_result=758.36
molecule="CCCOCCC [dipropyl ether]" recorded_result=762.93
molecule="CC(C)CCOCCC(C)C [di-(3-methylbutyl) ether]" recorded_result=787.37

====

- experimental_setup: 333.15 K; 55000 kPa; Liquid; Vibrating tube method
measured_metric: mass density (kg/m3)

compound="CCCCOCC [butyl ethyl ether]" recorded_result=764.8
compound="CC(C)CCOCCC(C)C [di-(3-methylbutyl) ether]" recorded_result=787.59
compound="CCOC(C)(C)C [2-ethoxy-2-methylpropane]" recorded_result=758.88
compound="CC(C)OC(C)C [diisopropyl ether]" recorded_result=744.38
compound="CCCOCCC [dipropyl ether]" recorded_result=763.16
compound="CCCCCOCCCCC [dipentyl ether]" recorded_result=793.66
compound="CCCCOC [butyl methyl ether]" recorded_result=760.97

====

- experimental_setup: 298.15 K; 5000 kPa; Liquid; Vibrating tube method
measured_metric: mass density (kg/m3)

entry_smiles=COC(C)(C)C measured_metric="mass density" recorded_result=741.32
entry_smiles=CCCCOCC measured_metric="mass density" recorded_result=750.51
entry_smiles=CCCCOC measured_metric="mass density" recorded_result=746.29
entry_smiles=CCCOCCC measured_metric="mass density" recorded_result=748.24
entry_smiles=CCOC(C)(C)C measured_metric="mass density" recorded_result=741.67
entry_smiles=CC(C)CCOCCC(C)C measured_metric="mass density" recorded_result=775.09
entry_smiles=CC(C)OC(C)C measured_metric="mass density" recorded_result=724.67
entry_smiles=CCCCCOCCCCC measured_metric="mass density" recorded_result=783.12

====

- experimental_setup: 328.15 K; 65000 kPa; Liquid; Vibrating tube method
measured_metric: mass density (kg/m3)

entry_smiles=CCOC(C)(C)C measured_metric="mass density" units_of_measure=kg/m3 recorded_result=770.52
entry_smiles=CC(C)OC(C)C measured_metric="mass density" units_of_measure=kg/m3 recorded_result=755.64
entry_smiles=CCCCOCC measured_metric="mass density" units_of_measure=kg/m3 recorded_result=775.41
entry_smiles=CCCCOC measured_metric="mass density" units_of_measure=kg/m3 recorded_result=771.91
entry_smiles=CCCCCOCCCCC measured_metric="mass density" units_of_measure=kg/m3 recorded_result=802.72
entry_smiles=CC(C)CCOCCC(C)C measured_metric="mass density" units_of_measure=kg/m3 recorded_result=796.84
entry_smiles=CCCOCCC measured_metric="mass density" units_of_measure=kg/m3 recorded_result=773.71
